Experimental Details: PAMPA, permeability assay across an artificial membrane
Condition Summary: increase: difference between percent diffusion of macrocycle vs linear counterpart
Quantity Kind: Δ % diffusion

Molecule	Reported
CCCCC[C@@H]1OC(=O)[C@@H](C)N(C)C(=O)[C@H](CCCCC)OC(=O)[C@@H](C)N(C)C(=O)[C@H](CCCCC)OC(=O)[C@@H](C)N(C)C(=O)[C@H](CCCCC)OC(=O)[C@@H](C)N(C)C1=O [Compound C1.4, ent-verticilide]	↑14%
CCCCC[C@@H]1OC(=O)[C@@H](C)N(C)C(=O)[C@H](CCCCC)OC(=O)[C@@H](C)N(C)C(=O)[C@H](CCCCC)OC(=O)[C@@H](C)N(C)C1=O [Compound C1.3, ent-verticilide B1]	↑3%
